molecular target: Substance-P receptor (Homo sapiens)
Sequence (P25103 whole entry): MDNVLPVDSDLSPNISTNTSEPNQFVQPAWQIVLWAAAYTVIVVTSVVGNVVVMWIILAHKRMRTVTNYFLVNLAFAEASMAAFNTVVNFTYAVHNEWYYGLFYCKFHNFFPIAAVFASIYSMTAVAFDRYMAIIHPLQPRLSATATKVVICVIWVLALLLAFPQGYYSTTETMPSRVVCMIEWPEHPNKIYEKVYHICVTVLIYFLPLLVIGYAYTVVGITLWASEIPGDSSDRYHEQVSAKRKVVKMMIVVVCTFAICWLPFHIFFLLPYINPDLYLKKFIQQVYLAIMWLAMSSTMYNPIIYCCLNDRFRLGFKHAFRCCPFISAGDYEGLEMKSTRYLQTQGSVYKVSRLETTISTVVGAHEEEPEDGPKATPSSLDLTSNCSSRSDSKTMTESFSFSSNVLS
PROPERTY_NAME: pKi
Reminder that pKi means the negative base-10 logarithm of the concentration expressed in mol/L.

Request: I am curious: what pKi value has been reported for COc1ccccc1CN[C@H]1CCCN[C@]12CCc1ccccc12 ?
Response: 7.40
